Data origin, for the record: the supplement of paper PMC10567573

B1: WDR88 (parent)
chain: LLTITKAHSNAISNCCFTFSGHFL

# Variants of: B1
# EXPERIMENT: protein stability index of a GFP-peptide fusion (GPS, HEK-293T) (PSI 1-6); higher = more stable;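 further: lentivirally expressed fusions sorted by FACS into six bins by GFP to DsRed ratio, PSI derived from sequencing read proportions per bin multiplied by bin number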
# CONDITION PARAMETERS: c terminus: a fixed tail appended
Response key: Criterion met means protein stability index >= 3; Criterion not met means protein stability index < 3.

The examples below pair each entry with its known result.
GLTITKAHSNAISNCCFTFSGHFL [L1G] : Criterion not met
LLTITKAHSNAISNCCFTFSGNFL [H22N] : Criterion not met
LLTITKVHSNAISNCCFTFSGHFL [A7V] : Criterion not met
LLTITKAHSNAISNCCFTFSGRFL [H22R] : Criterion not met
LLTHTKAHSNAISNCCFTFSGHFL [I4H] : Criterion not met
LLTITKAHSFAISNCCFTFSGHFL [N10F] : Criterion met
LLTITKAHSNAKSNCCFTFSGHFL [I12K] : Criterion not met
LLTITKAHSNAISNCCFTFAGHFL [S20A] : Criterion not met

Is it the case that LLTFTKAHSNAISNCCFTFSGHFL [I4F] has protein stability index reaching or exceeding 3?
Criterion met

Is it the case that LLTITKAHSNAISNCCFTFSGHFE [L24E] has protein stability index reaching or exceeding 3?
Criterion not met

Is it the case that LLTIDKAHSNAISNCCFTFSGHFL [T5D] has protein stability index reaching or exceeding 3?
Criterion not met

Is it the case that LLTITKAHSNAISNCCFYFSGHFL [T18Y] has protein stability index reaching or exceeding 3?
Criterion not met

Is it the case that LLTITKAHSNTISNCCFTFSGHFL [A11T] has protein stability index reaching or exceeding 3?
Criterion met
